Sourced from patent US4299830A

Test description: Anti-acetylcholine Writhing Test
Type: in vivo
Experimental parameters: Mus musculus, sc, subcutaneous, mice, expressed as free base; read-out: ED50 (95% Confidence Limits)
Task for the reader: assign each of the following compounds its reported ED50.
For clarity, give the value followed by its unit.

Enquiry: For the compound CCNc1ccc2c(c1)N1CCN(CC3CC3)C(C2)C1.Cl.Cl (stereo not drawn) [Example 3B] , give its measured ED50 value.
Return: 3.8 mg/kg

Enquiry: For the compound c1ccc2c(c1)CC1CN2CCN1CC1CC1 (stereo not drawn) [Compound of Formula A*, reference compound] , give its measured ED50 value.
Return: 12 mg/kg

Enquiry: For the compound C=CCN1CCN2CC1Cc1ccc(N)cc12 (stereo not drawn) [Example 2E, hemihydrate] , give its measured ED50 value.
Return: 30 mg/kg

Enquiry: For the compound Nc1ccc2c(c1)N1CCN(CC3CC3)C(C2)C1 (racemic) [Example 1D] , give its measured ED50 value.
Return: 3.2 mg/kg

Enquiry: For the compound CCCCNc1ccc2c(c1)N1CCN(CC3CC3)C(C2)C1 (stereo not drawn) [Example 4B] , give its measured ED50 value.
Return: 1.6 mg/kg

Enquiry: For the compound CCS(=O)(=O)O.CCS(=O)(=O)O.Nc1ccc2c(c1)N1CCN(CC3CC3)C(C2)C1 (stereo not drawn) [Example 1E] , give its measured ED50 value.
Return: 3.7 mg/kg

###

Test description: Anti-bradykinin Test
Type: in vivo
Experimental parameters: Rattus norvegicus, sc; subcutaneous, rats, expressed as free base; read-out: ED50 (95% Confidence Limits)
Measured quantity: ED50

Enquiry: For the molecule c1ccc2c(c1)CC1CN2CCN1CC1CC1 (stereo not shown) [Compound of Formula A*, reference compound] , give its measured ED50 value.
Return: 21 mg/kg

Enquiry: For the molecule CCNc1ccc2c(c1)N1CCN(CC3CC3)C(C2)C1.Cl.Cl (stereo not shown) [Example 3B] , give its measured ED50 value.
Return: 3.4 mg/kg

Enquiry: For the molecule CCCCNc1ccc2c(c1)N1CCN(CC3CC3)C(C2)C1 (stereo not shown) [Example 4B] , give its measured ED50 value.
Return: 2.9 mg/kg

Enquiry: For the molecule Nc1ccc2c(c1)N1CCN(CC3CC3)C(C2)C1 (racemic) [Example 1D] , give its measured ED50 value.
Return: 2.6 mg/kg
